Reported Inhibitory effects of cyclooxygenase (COX), COX-2 values are given for each entry in this list.
molecular target: cyclooxygenase-2 (Mus musculus); construct: Peritoneal fluid suspended with macrophages was extracted from a mouse peritoneal cavity; endogenous in cells; host or cells: primary mouse peritoneal macrophages, pretreated with 500 uM aspirin and stimulated with 10 ug/ml LPS; test: Inhibition of cyclooxygenase-2 in aspirin-pretreated, LPS-stimulated mouse peritoneal macrophages (PGE2 ELISA); type: cell-based; settings: 30 nM
Sequence (Q05769 18-604): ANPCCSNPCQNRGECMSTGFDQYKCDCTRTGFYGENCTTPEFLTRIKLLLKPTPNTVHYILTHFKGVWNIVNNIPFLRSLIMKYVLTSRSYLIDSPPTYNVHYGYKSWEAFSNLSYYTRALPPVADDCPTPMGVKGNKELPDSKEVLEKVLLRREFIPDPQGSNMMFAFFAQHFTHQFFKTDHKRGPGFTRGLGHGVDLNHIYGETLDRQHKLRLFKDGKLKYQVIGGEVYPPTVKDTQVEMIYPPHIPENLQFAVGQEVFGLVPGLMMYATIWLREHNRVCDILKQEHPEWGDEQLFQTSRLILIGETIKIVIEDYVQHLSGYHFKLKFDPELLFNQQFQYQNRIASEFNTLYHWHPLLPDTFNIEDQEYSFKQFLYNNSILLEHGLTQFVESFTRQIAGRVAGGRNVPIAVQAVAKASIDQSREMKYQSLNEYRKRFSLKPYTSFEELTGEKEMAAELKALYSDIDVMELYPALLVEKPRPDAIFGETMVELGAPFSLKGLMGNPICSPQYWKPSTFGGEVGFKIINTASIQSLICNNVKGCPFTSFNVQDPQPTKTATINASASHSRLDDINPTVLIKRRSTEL
Answer in % inhibition, number only, no unit symbol.

In [3]: df
Out[3]:
                           structure_string                           target  observed_result
0  CO/N=C1\CCc2ccccc2C1=Cc1ccc(S(C)(=O)=O)cc1  cyclooxygenase-2 (Mus musculus)             55.4
1  CS(=O)(=O)c1ccc(C=C2/C(=N/OC(=O)COCc3ccccc3)CCc3ccccc32)cc1  cyclooxygenase-2 (Mus musculus)             20.4
2  CS(=O)(=O)c1ccc(-c2onc3c2-c2ccccc2CC3)cc1  cyclooxygenase-2 (Mus musculus)             59.8
3  CS(=O)(=O)c1ccc(-c2[nH]nc3c2-c2ccccc2CC3)cc1  cyclooxygenase-2 (Mus musculus)             33.4
4  CCO/N=C1\CCc2ccccc2C1=Cc1ccc(S(C)(=O)=O)cc1  cyclooxygenase-2 (Mus musculus)             50.1
5  CS(=O)(=O)c1ccc(C=C2/C(=N/O)CCc3ccccc32)cc1  cyclooxygenase-2 (Mus musculus)             15.7

Input CC(=O)O/N=C1\CCc2ccccc2C1=Cc1ccc(S(C)(=O)=O)cc1 . Output Inhibitory effects of cyclooxygenase (COX), COX-2: 22.1

Input CS(=O)(=O)c1ccc(C=C2/C(=N/OCc3ccccc3)CCc3ccccc32)cc1 . Output Inhibitory effects of cyclooxygenase (COX), COX-2: 51.2

Input Cn1nc2c(c1-c1ccc(S(C)(=O)=O)cc1)-c1ccccc1CC2 . Output Inhibitory effects of cyclooxygenase (COX), COX-2: 20.2
